- MEASURED_TARGET: Estrogen receptor beta (Homo sapiens)
- PROTOCOL: qHTS assay to identify small molecule antagonists of the estrogen receptor beta (ER-beta) signaling pathway (AID 1259378)
- EXPERIMENTAL_PARAMETERS: ER-beta-UAS-bla HEK293T, beta-lactamase FRET ratio, 16 h; series mostly up to 92.4 µM
Inconclusive results are not listed. Calls of active or inactive are those of the source. Calls come from the whole dose curve; as a rule, active = well fitted inhibition curve with a large enough effect in the signal ratio in the repeat runs (not every such curve was filed as active); inconclusive = weak or mixed curves, or effect the other way; inactive = no such curve, though single readings can be large or run the other way; the % refers to the signal ratio.
Output constraint: value belongs to t for active, f for inactive

Check out these entries, answers already filled in.
> print(dat)
                                   compound  cat
1  CC1(C)C(/C=C(\Cl)C(F)(F)F)C1C(=O)OC(C#N)c1cccc(Oc2ccccc2)c1 (configuration not stated)    f
2                     Oc1cc(Cl)c(Cl)c(Cl)c1    t
3                          Fc1cccc(Cl)c1CCl    f
4  COc1cccc2c1C(=O)c1c(O)c3c(c(O)c1C2=O)C[C@@](O)(C(=O)CO)CC3OC1CC(N2CCOC(OC)C2)C(O)C(C)O1 (some centres not stated)    t
5  COC(=O)N(C(=O)N1COC2(C(=O)OC)Cc3cc(Cl)ccc3C2=N1)c1ccc(OC(F)(F)F)cc1 (configuration not stated)    f

Each compound tested received a call. Report the one for CC(C)C1CCC(Cc2ccc(Cl)cc2)C1(O)Cn1cncn1 (configuration not stated) .
t

What do we get for CCCCCCCCCCCCCN1CC(C)OC(C)C1 (configuration not stated) ?
f

Now consider "C[As+](C)(C)CC(=O)[O-]" .
f

---

- PROTOCOL: qHTS assay to identify small molecule antagonists of the thyroid receptor (TR) signaling pathway (AID 743065); note: nearly all actives have a fitted effect of over 55% in size; note: potency is the fitted concentration of half-maximal effect
- EXPERIMENTAL_PARAMETERS: GH3.TRE-Luc, T3-stimulated luciferase inhibition, 23.5 h; series mostly up to 70.3 µM
Results filed as inconclusive are left out. Active and inactive are the calls of the source. Calls follow the shape of the dose curve; as a rule, active = well fitted inhibition curve with a large enough effect in the repeat runs; inconclusive = weak or mixed curves; inactive = no such curve, though single readings can be large or run the other way.
VALUE_KIND: Potency

COMPOUND	Potency
C[C@]12CC[C@H]3[C@@H](CCC4=CC(=O)CC[C@@]43C)[C@@H]1CC[C@@H]2O	30.4 µM (active)
Clc1ccc(C(Cl)(Cl)Cl)c(Cl)c1	inactive
Nc1ccc(Sc2ccc(N)cc2)cc1	inactive
Cc1cc(SCc2sc(-c3ccc(C(F)(F)F)c(F)c3)nc2C)ccc1OCC(=O)O	61.1 µM (active)
O=CC(Br)(Br)Br	19.3 µM (active)

Would you kindly share the measured Potency for "Oc1c(Cl)c(Cl)cc(Cl)c1Cl" ?
23.7 µM (active)

Now the compound "CCCCOCN(C(=O)CCl)c1c(CC)cccc1CC"
61.1 µM (active)

---

- MEASURED_TARGET: Aromatase (Homo sapiens)
- PROTOCOL: qHTS assay to identify aromatase inhibitors (AID 743083); note: nearly all actives have a fitted effect of over 55% in size; note: potency is the fitted concentration of half-maximal effect
- EXPERIMENTAL_PARAMETERS: MCF-7 aro ERE, testosterone-driven ERE luciferase, 24 h; series mostly up to 70.3 µM
Records with an inconclusive call do not appear. Calls of active or inactive are those of the source. Calls come from the whole dose curve; as a rule, active = well fitted inhibition curve with a large enough effect in the repeat runs; inconclusive = weak or mixed curves; inactive = no such curve, though single readings can be large or run the other way.
VALUE_KIND: Potency

As a guide, the following entries are already answered.
COMPOUND	MEASURED_TARGET	ASSAY_RESULT
O=[N+]([O-])O.O=[N+]([O-])O.[Cd]	Aromatase (Homo sapiens)	inactive
CC(=O)[O-].CC(=O)[O-].[Hg+2]	Aromatase (Homo sapiens)	2.73 µM (active)
CN(C)CCc1c[nH]c2ccc(O)cc12	Aromatase (Homo sapiens)	inactive
CCOC(=O)CC(=O)CCl	Aromatase (Homo sapiens)	30.6 µM (active)
CCC[CH2][Sn]([CH2]CCC)([CH2]CCC)[O]C(=O)c1ccccc1	Aromatase (Homo sapiens)	2.17 µM (active)

I would be grateful if you could share the reported Potency for "O=C(CCCN1CCC2(CC1)C(=O)NCN2c1ccccc1)c1ccc(F)cc1" .
29.8 µM (active)

Also check "FC(F)(F)c1cccc(C2=CCN(CCc3ccc4ccccc4c3)CC2)c1"
inactive

Next up: "CCN(CC)C(=S)[S-].CCN(CC)C(=S)[S-].[Zn+2]"
0.096 µM (active)

What about this compound? "CN(C)[C@@H]1C(=O)C(C(N)=O)=C(O)[C@@]2(O)C(=O)C3=C(O)c4c(O)ccc(Cl)c4[C@@](C)(O)[C@H]3C[C@@H]12"
inactive

Here is the next compound: "c1ccc2cc3c(cc2c1)-c1cccc2cccc-3c12"
inactive

Now the compound "CCCCCCCCCCCCCCCCCCn1cc[n+](C)c1"
3.83 µM (active)

Next compound up: c1ccc2c(c1)OCC(C1=NCCN1)O2 (stereo unspecified)
26.6 µM (active)
